Origin of measurements: PubChem BioAssay (NCI)

- Tested on: A549 NSCLC
- assay-comment: NCI tumour cell line growth inhibition, 48 h; in the data active = GI50 below about 0.43 µM; inactive = the rest
Outcome codes: active, inactive

1) O=C(c1ccccc1)c1ccc(O)c2ncccc12 | inactive
2) N#CSCC1CC(O)(c2ccccc2)CC(c2ccc(Cl)cc2)O1 (stereo not given) | inactive
3) COC(=O)c1ccc(NC(N)=NCC(C)(C)COc2ccc(C(F)(F)F)cc2)nc1 | inactive
4) CC(=O)OC1CC2(O)C(CCC3(C)C(c4ccc(=O)oc4)CCC32O)C2(C)CCC(OC3OC(CO)C(O)C(O)C3O)C=C12 (stereo not given) | active
5) Clc1ccc(-c2nc(C(Cl)Cl)nc3cc(-c4ccccc4)nn23)cc1 | inactive
6) COc1ccc(C2SCC(=O)N2NC(=O)C(O)c2ccccc2)cc1 (stereo not given) | inactive
7) CSC(=NC#N)S/C=C/C(=O)c1cccc2ccccc12 | inactive
8) OCC#CCCCCOCC#Cc1ccccc1C#CCOCCCCC#CCO | inactive
9) O=C(Nc1nc(-c2ccccc2)cs1)c1cc(O)c(O)c(O)c1 | inactive
10) COc1ccccc1Nc1nc2ccccc2c2occc12 | inactive
